Attribution: patent US20080090805A1

Catalogue of Emax readings, one per entry.
Biological target: CB1 (mutant) (Homo sapiens, UniProt P21554)
Sequence (P21554 1-417, change not shown): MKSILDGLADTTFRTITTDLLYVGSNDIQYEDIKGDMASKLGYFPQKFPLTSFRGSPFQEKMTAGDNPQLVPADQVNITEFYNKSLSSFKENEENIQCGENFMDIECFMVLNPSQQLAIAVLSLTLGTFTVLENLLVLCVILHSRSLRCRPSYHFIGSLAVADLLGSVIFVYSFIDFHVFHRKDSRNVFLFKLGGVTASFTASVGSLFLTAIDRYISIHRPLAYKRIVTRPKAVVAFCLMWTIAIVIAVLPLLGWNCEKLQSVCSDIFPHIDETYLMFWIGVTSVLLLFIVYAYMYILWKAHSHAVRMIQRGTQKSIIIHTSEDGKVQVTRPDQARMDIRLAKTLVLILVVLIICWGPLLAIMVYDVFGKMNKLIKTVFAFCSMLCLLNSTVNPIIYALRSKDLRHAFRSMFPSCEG
Test: R-SAT functional receptor assay, CB1 (mutant, truncated after amino acid 417)
Assay type: cell-based
Settings: Appendix A; R-SAT CB1; receptor form not stated; relative to SR141716 (100%); read-out: % Inhibition
All answers are understood in %, so give the number only.

molecule: O=C(NCCc1ccccn1)c1ccc2c(c1)N=C(c1ccc(Cl)c(Cl)c1)c1ccccc1S2 [drawing 1077]
output_unit: %
observed_measurement: 93

molecule: CC(C)CNC(=O)c1ccc2c(c1)N=C(c1ccc(Cl)cn1)c1ccc(F)cc1S2 [drawing 558]
output_unit: %
observed_measurement: 123

Inquiry: Quick one: Emax of O=C(NCc1ccccn1)c1ccc2c(c1)N=C(c1ccc(Cl)cc1)c1ccccc1S2 [drawing 1157] ?
Reply text: 125

Inquiry: Same again, this time with `CCCCN(C)C(=O)c1ccc2c(c1)N=C(c1ccc(Cl)cc1F)c1ccccc1S2`
Reply text: 84

Inquiry: Same again, this time with CCCNC(=O)c1ccc2c(c1)N=C(c1ccc(F)cc1)c1ccccc1S2 [drawing 841]
Reply text: 95

Inquiry: Same again, this time with CCCCNC(=O)c1ccc2c(c1)N=C(c1ccc(Cl)s1)c1cc(F)ccc1S2 [drawing 873]
Reply text: 99

Inquiry: Same again, this time with O=C(NCc1cccc(Cl)c1)c1ccc2c(c1)N=C(c1ccccc1F)c1ccccc1S2 [drawing 1083]
Reply text: 99

Inquiry: Same again, this time with O=C(NCc1ccccc1Br)c1ccc2c(c1)N=C(c1ccccc1F)c1ccccc1S2 [drawing 602]
Reply text: 65

Inquiry: Same again, this time with O=C(NN1CCCC1)c1ccc2c(c1)N=C(c1ccc(Cl)cc1)c1ccccc1S2 [drawing 698]
Reply text: 100

Inquiry: Same again, this time with `COCCNC(=O)c1ccc2c(c1)N=C(c1ccccn1)c1ccccc1S2`
Reply text: 71

Inquiry: Same again, this time with O=C(NCCCc1ccccc1)c1ccc2c(c1)N=C(c1ccccc1)c1ccccc1S2 [drawing 617]
Reply text: 111

Inquiry: Same again, this time with O=C(Cc1ccccc1)NNC(=O)c1ccc2c(c1)N=C(c1ccc(F)cc1)c1ccccc1S2 [drawing 840]
Reply text: 98

Inquiry: Same again, this time with CCN(CCNC(=O)c1ccc2c(c1)N=C(c1ccccc1)c1ccccc1S2)c1ccccc1 [drawing 777]
Reply text: 106

Inquiry: Same again, this time with `CCCNC(=O)c1ccc2c(c1)N=C(c1ccccc1F)c1ccccc1S2`
Reply text: 97

Inquiry: Same again, this time with O=C(NCc1cccc(Cl)c1)c1ccc2c(c1)N=C(c1cccc(Cl)c1)c1ccccc1S2 [drawing 603]
Reply text: 112

Inquiry: Same again, this time with `CON(C)C(=O)c1ccc2c(c1)N=C(c1ccc(Cl)s1)c1ccccc1S2`
Reply text: 55

Inquiry: Same again, this time with O=C(NCCc1cccnc1)c1ccc2c(c1)N=C(c1ccc(Cl)c(Cl)c1)c1ccccc1S2 [drawing 825]
Reply text: 104

Inquiry: Same again, this time with O=C(NCc1ccco1)c1ccc2c(c1)N=C(c1cccc(F)c1)c1ccccc1S2 [drawing 693]
Reply text: 104

* * *

Catalogue of IC50 readings, one per entry.
Molecular target: CB1 (mutant) (Homo sapiens)
Test: R-SAT functional receptor assay, CB1 (mutant, truncated after amino acid 417)
Assay type: cell-based
Settings: Appendix A; R-SAT CB1; receptor form (mutant or wild-type) not stated; read-out: pIC50 (converted)
All answers are understood in nM, so give the number only.

// below: answered compounds
compound: CCONC(=O)c1ccc2c(c1)N=C(c1ccc(F)cc1)c1ccccc1S2
target_entity: CB1 (mutant) (Homo sapiens)
measure_name: IC50
output_unit: nM
observed_measurement: 63.1

compound: O=C(NCc1cccc(Cl)c1)c1ccc2c(c1)N=C(N1CCCCC1)c1cc(F)ccc1S2 [drawing 649]
target_entity: CB1 (mutant) (Homo sapiens)
measure_name: IC50
output_unit: nM
observed_measurement: 5.01

compound: CCCCNC(=O)c1ccc2c(c1)N=C(c1cccc(Cl)c1)c1cc(F)ccc1S2 [drawing 829]
target_entity: CB1 (mutant) (Homo sapiens)
measure_name: IC50
output_unit: nM
observed_measurement: 12.6

compound: Cc1cccc(C2=Nc3cc(C(=O)NC4CCC(F)(F)CC4)ccc3Sc3ccccc32)n1 [drawing 869]
target_entity: CB1 (mutant) (Homo sapiens)
measure_name: IC50
output_unit: nM
observed_measurement: 15.8

compound: CCONC(=O)c1ccc2c(c1)N=C(c1ccccc1F)c1ccccc1S2
target_entity: CB1 (mutant) (Homo sapiens)
measure_name: IC50
output_unit: nM
observed_measurement: 398

Inquiry: Please state recorded IC50 (tested on CB1 (mutant) (Homo sapiens)) of CC(C)CNC(=O)c1ccc2c(c1)N=C(c1ccccc1F)c1ccccc1S2 [drawing 627]
Reply text: 5.01

Inquiry: Same again, this time with `CONC(=O)c1ccc2c(c1)N=C(c1ccc(F)cc1)c1ccccc1S2`
Reply text: 501

Inquiry: Same again, this time with CCCC1=Nc2cc(C(=O)NCc3ccc(F)cc3)ccc2Sc2ccccc21 [drawing 787]
Reply text: 10

Inquiry: Same again, this time with CC(CNC(=O)c1ccc2c(c1)N=C(N1CCCCC1)c1ccccc1S2)c1ccccc1 (stereo not drawn) [drawing 1017]
Reply text: 25.1

* * *

Test: Clearance study, liver microsomes (human)
Settings: pH 7.4
measure_name: log10(microsomal CLint at 1 μM) (log10 of the value in µL/min/mg)
Please be aware that the numbers have been log10-transformed from microsomal CLint at 1 μM in µL/min/mg.

compound: CCN(CCNC(=O)c1ccc2c(c1)N=C(C1CCCCC1)c1ccccc1S2)c1ccccc1 [drawing 1747]
observed_measurement: 2.40
--
compound: CCCCNC(=O)c1ccc2c(c1)N=C(c1ccc(Cl)cn1)c1cc(F)ccc1S2 [drawing 1748]
observed_measurement: 1.76
--
compound: Cc1ccc(CNC(=O)c2ccc3c(c2)N=C(c2cccc(Cl)c2)c2ccccc2S3)o1 [drawing 1705]
observed_measurement: 1.57

Inquiry: Quick one: log10(microsomal CLint at 1 μM) of O=C(NCc1cccnc1)c1ccc2c(c1)N=C(c1ccc(F)cc1)c1ccccc1S2 [drawing 1724] ?
Reply text: 1.79

Inquiry: Same again, this time with CC(CNC(=O)c1ccc2c(c1)N=C(c1ccc(Cl)cc1)c1cc(F)ccc1S2)c1ccccc1 (centres unmarked) [drawing 1716]
Reply text: 1.59

Inquiry: Same again, this time with CC(C)CNC(=O)c1ccc2c(c1)N=C(c1ccc(Cl)s1)c1ccc(F)cc1S2 [drawing 1793]
Reply text: 1.51

Inquiry: Same again, this time with COc1ccc(C2=Nc3cc(C(=O)NCC(C)C)ccc3Sc3ccccc32)cc1 [drawing 1708]
Reply text: 1.89

Inquiry: Same again, this time with O=C(NCCc1cccnc1)c1ccc2c(c1)N=C(c1ccc(Cl)s1)c1ccccc1S2 [drawing 1690]
Reply text: 2.38

Inquiry: Same again, this time with CC(C)CNC(=O)c1ccc2c(c1)N=C(c1ccc(Cl)s1)c1ccc(Cl)cc1S2 [drawing 1679]
Reply text: 0.70

* * *

Catalogue of log10(IC50) readings, one per entry.
Target: CB1 (mutant) (Homo sapiens)
Test: R-SAT functional receptor assay, CB1 (mutant, truncated after amino acid 417)
Type: cell-based
Settings: Appendix A; R-SAT CB1; receptor form (mutant or wild-type) not stated; read-out: pIC50 (converted)
Please be aware that the numbers have been log10-transformed from IC50 in nM.

// below: answered compounds
compound: CCONC(=O)c1ccc2c(c1)N=C(c1cccc(Cl)c1)c1ccccc1S2
log10(IC50): 1.90

compound: CCOCCNC(=O)c1ccc2c(c1)N=C(c1ccc(C(=O)OCC)cc1)c1ccccc1S2
log10(IC50): 2.20

compound: O=C(NN1CCCCCC1)c1ccc2c(c1)N=C(c1ccccc1F)c1ccccc1S2 [drawing 578]
log10(IC50): 1.70

compound: O=C(c1ccc2c(c1)N=C(c1cccc(Cl)c1)c1ccccc1S2)N1CCCCC1
log10(IC50): 1.60

compound: O=C(NNCc1ccccc1)c1ccc2c(c1)N=C(c1ccc(Cl)cc1)c1ccccc1S2
log10(IC50): 2.30

compound: O=C(NCc1ccccc1)c1ccc2c(c1)N=C(N1CCCCC1)c1ccccc1S2 [drawing 681]
log10(IC50): 0.80

Inquiry: Quick one: log10(IC50) of O=C(NN1CCCCC1)c1ccc2c(c1)N=C(c1ccc(F)cn1)c1ccccc1S2 [drawing 660] ?
Reply text: 1.80

Inquiry: Same again, this time with `CONC(=O)c1ccc2c(c1)N=C(c1ccc(Br)cc1)c1ccccc1S2`
Reply text: 2.90

Inquiry: Same again, this time with `Cc1cccnc1C1=Nc2cc(C(=O)NC3CCCCC3)ccc2Sc2ccccc21`
Reply text: 2.70

* * *

Catalogue of inhibition at 1 µM readings, one per entry.
Molecular target: hERG (Homo sapiens, UniProt Q12809)
Sequence (Q12809 whole entry): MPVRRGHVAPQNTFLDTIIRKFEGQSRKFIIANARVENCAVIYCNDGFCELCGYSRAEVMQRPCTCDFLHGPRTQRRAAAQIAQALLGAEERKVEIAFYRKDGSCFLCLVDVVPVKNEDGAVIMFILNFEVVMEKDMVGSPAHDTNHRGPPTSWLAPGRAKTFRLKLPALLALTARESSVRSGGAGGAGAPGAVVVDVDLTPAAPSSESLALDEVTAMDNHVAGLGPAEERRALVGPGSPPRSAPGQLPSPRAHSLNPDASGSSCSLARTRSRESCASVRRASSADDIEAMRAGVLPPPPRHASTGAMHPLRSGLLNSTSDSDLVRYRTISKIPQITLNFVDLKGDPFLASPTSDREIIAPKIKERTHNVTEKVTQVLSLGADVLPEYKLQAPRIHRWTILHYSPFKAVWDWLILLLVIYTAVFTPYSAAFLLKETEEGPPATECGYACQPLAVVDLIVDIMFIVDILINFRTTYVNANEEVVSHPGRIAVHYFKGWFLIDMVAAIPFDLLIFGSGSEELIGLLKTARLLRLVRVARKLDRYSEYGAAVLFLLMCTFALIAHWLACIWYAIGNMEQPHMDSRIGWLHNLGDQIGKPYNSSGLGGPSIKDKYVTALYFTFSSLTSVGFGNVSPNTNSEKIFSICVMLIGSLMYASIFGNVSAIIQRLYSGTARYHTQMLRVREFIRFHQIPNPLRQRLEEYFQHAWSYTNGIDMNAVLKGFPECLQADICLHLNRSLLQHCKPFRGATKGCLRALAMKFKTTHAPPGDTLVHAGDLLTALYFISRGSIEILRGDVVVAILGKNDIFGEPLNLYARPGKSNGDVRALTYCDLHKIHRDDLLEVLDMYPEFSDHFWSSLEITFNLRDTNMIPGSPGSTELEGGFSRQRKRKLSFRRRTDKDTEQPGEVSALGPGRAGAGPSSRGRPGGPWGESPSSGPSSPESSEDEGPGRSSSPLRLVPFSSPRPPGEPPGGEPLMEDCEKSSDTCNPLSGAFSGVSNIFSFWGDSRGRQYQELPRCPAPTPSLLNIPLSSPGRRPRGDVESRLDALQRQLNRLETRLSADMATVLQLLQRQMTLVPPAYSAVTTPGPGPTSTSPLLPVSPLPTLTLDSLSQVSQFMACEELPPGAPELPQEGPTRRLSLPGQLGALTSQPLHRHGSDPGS
Assay: in vitro
Conditions: pH 7.4
All answers are understood in %, so give the number only.

// below: answered molecules
molecule: O=C(NC1CCC(F)(F)CC1)c1ccc2c(c1)N=C(c1cccc(Cl)c1)c1ccccc1S2 [drawing 1838]
observed_measurement: 62
--
molecule: O=C(NN1CCCCC1)c1ccc2c(c1)N=C(c1ccc(Cl)s1)c1ccccc1S2 [drawing 1829]
observed_measurement: 66
--
molecule: CC(C)CNC(=O)c1ccc2c(c1)N=C(c1ccc(Cl)cc1)c1ccccc1S2 [drawing 1818]
observed_measurement: 69
--
molecule: O=C(NN1CCCCC1)c1ccc2c(c1)N=C(c1ccc(F)cc1)c1ccccc1S2 [drawing 1815]
observed_measurement: 91

Inquiry: Quick one: inhibition at 1 µM of O=C(NN1CCCCCC1)c1ccc2c(c1)N=C(c1cccc(F)c1)c1ccccc1S2 [drawing 1827] ?
Reply text: 88
